FYI, the data here is from paper PMC9828437.

Entries and their melting point

Please review the following examples before continuing.
| smiles record | melting point |
| --- | --- |
| O=C1CSC(=O)N1Cc1nnc(-c2ccc(Cl)cc2Cl)o1 | 210 to 212 °C |
| O=C1CSC(=O)N1Cc1nnc(-c2ccccc2)o1 | 215 to 217 °C |

Lab book: melting point of "O=C1CSC(=O)N1Cc1nnc(-c2ccc([N+](=O)[O-])cc2Cl)o1" noted as 161 to 163 °C
